- STUDY_TARGET: T1, full length human GLP-1R with N-terminal FLAG tag and C-terminal GFP tag, on CHO cells (human, UniProt P43220 24-463)
- T1 construct: whole, on cells; the cell line itself is tied to UniProt P43220; also called FLAG-GLP-1R-GFP; CHO-GLP-1R
- PROTOCOL_NOTES: flow cytometry, GLP1R-expressing CHO cells
TEST_READOUT: Median RL1-H of Expressing Singlets
Answers are plain numbers.

>  <BINDER>
GLP1R-222-014 (antibody, V domains shown, IgG) VH: QVQLVESGGGVVQPGRSLRLSCAASGFAFSNYGMHWVRQAPGKGLEWVSFISYDESNKYYADSVKGRFTISRDNSKNTLYLQMNNLRAEDTAVYYCAKHMSMQEGAVTGEWQAAKEFIAWLVKGRVRADLVGDAFDVWGQGTLVTVSS VL: QSVLTQPPSVSAAPGQKVTISCSGSSSNIGNHDVSWYQQLPGTAPKLLIYDNNKRHSGIPDRFSGSKSGTSATLGITGLQTGDEADYYCGTWDTSLSAGVFGGGTKLTVL

>  <Median RL1-H of Expressing Singlets>
237000

$$$$
>  <BINDER>
GLP1R-222-056 (antibody, V domains shown, IgG) VH: QVQLVESGGGVVQPGRSLRLSCAASGFPFSSYAMHWVRQAPGKGLEWVAVISYDRSNKYYADSVKGRFTISRDNSKNTLYLQMNSLRAEDTAVYYCAKHMSMQEGAVTGYGQAAKEFIAWLVKGFVRADLVGDAFDVWGQGTLVTVSS VL: QSVLTQPPSVSAAPGQKVTISCSGSSSNIGSNYISWYQQLPGTAPKLLIYDNDKRPAGIPDRFSGSKSGTSATLGITGLQTGDEADYYCGTWDTSLSVGEFGGGTKLTVL

>  <Median RL1-H of Expressing Singlets>
218000

$$$$
>  <BINDER>
GLP1R-222-023 (antibody, V domains shown, IgG) VH: QVQLVESGGGVVQPGRSLRLSCAASGFSFSDYGMHWVRQAPGKGLEWVAFISYDANNKYYADSVKGRFTISRDNSKNTLYLQMNSLRAEDTAVYYCAKHMSMQEGAVTGEWQAAKEFIAWLVKGRVRADLVGDAFDVWGQGTLVTVSS VL: QSVLTQPPSVSAAPGQKVTISCSGSSSNIGNNDVSWYQQLPGTAPKLLIYENTKRPSGIPDRFSGSKSGTSATLGITGLQTGDEADYYCGTWDAGLSTGVFGGGTKLTVL

>  <Median RL1-H of Expressing Singlets>
241000

$$$$
>  <BINDER>
GLP1R-222-090 (antibody, V domains shown, IgG) VH: QVQLVESGGGVVQPGRSLRLSCAASGFSFSDYGIHWVRQAPGKGLEWVALISYEGSNKYYADSVKGRFTISRDNSKNTLYLQMNSLRAEDTAVYYCAKHMSMQEGAVTGEKQAAKEFIAWLVKGRVRADLVGDAFDVWGQGTLVTVSS VL: QSVLTQPPSVSAAPGQKVTISCSGSSSNIADNYVSWYQQLPGTAPKLLIYDNNKRASGIPDRFSGSKSGTSATLGITGLQTGDEADYYCATWDNRLSAGVFGGGTKLTVL

>  <Median RL1-H of Expressing Singlets>
227000

$$$$
>  <BINDER>
GLP1R-3 (antibody, human IgG2, lambda, V domains shown, full length human IgG2; also called GLP1R01-3) VH: QVQLVESGGGVVQPGRSLRLSCAASGFTFSSYGMHWVRQAPGKGLEWVSFISYDESNKYYADSVKGRFTISRDNSKNTLYLQMNSLRAEDTAVYYCAKHMSMQEGAVTGEGQAAKEFIAWLVKGRVRADLVGDAFDVWGQGTLVTVSS VL: QSVLTQPPSVSAAPGQKVTISCSGSSSNIADNYVSWYQQLPGTAPKLLIYDNNKRPSGIPDRFSGSKSGTSATLGITGLQTGDEADYYCGTWDNYLGAGVFGGGTKLTVLG

>  <Median RL1-H of Expressing Singlets>
224000

$$$$

Proceed to the following item.
Name the recorded Median RL1-H of Expressing Singlets of the binder listed here: GLP1R-222-052 (antibody, V domains shown, IgG) VH: QVQLVESGGGVVQPGRSLRLSCAASGFTFNNYPMHWVRQAPGKGLEWVAVISYDESNKYYADSVKGRFTISRDNSKNTLYLQMNSLRAEDTAVYYCAKHMSMQEGAVTGGGQAAKEFIAWLVKGRVRADLVGDAFDVWGQGTLVTVSS VL: QSVLTQPPSVSAAPGQKVTISCSGSSSNIGKRSVSWYQQLPGTAPKLLIYDNNKRASGIPDRFSGSKSGTSATLGITGLQTGDEADYYCVTWDRSLSAGVFGGGTKLTVL 378000
